protein stability index listing for selected variants.
B1: LCOR (parent)
chain: YKVKERLGTLKNPPKKKMKLMSG

Variants of: B1
Assay: protein stability index of a GFP-peptide fusion (GPS, HEK-293T) (PSI 1-6); higher = more stable;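 note: lentivirally expressed fusions sorted by FACS into six bins by GFP to DsRed ratio, PSI derived from sequencing read proportions per bin multiplied by bin number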
Details: c terminus: native
Answer with a number only.

Record excerpt, results attached:
N12F    1.86
S22N    2.11
G23S    3
V3D    2.36
M18S    1.52

Per the records, this variant ( `Y1L` ) has protein stability index equal to 2.59

Consider `L10P` . Its measured protein stability index is 1.42

# protein stability index of `G23L` = 2.75

response.value for `E5F` (field: protein stability index) = 2.71

The recorded protein stability index for entry `T9M` equals 2.39
